For each of the compounds below, state its Inhibitory Ratio of NF-κ B Activation(%).
system: NF-κB activation; assay: Inhibitory activity against NF-κB activation, luciferase reporter assay under TNF-α stimulation; assay type: cell-based, human; conditions: Drug Concentration 10 μg/mL; HepG2 cells, TNF-α 40 ng/ml, 4 hours
One number for each entry, in %.

Ask: Param item = COc1ccc(Cl)cc1C(=O)Nc1cc(C(F)(F)F)cc(C(F)(F)F)c1 ; retrieve measured Inhibitory Ratio of NF-κ B Activation(%).
Reply: 24.0

Ask: Param item = CC(=O)OCOc1ccc(Cl)cc1C(=O)Nc1cc(C(F)(F)F)cc(C(F)(F)F)c1 ; retrieve measured Inhibitory Ratio of NF-κ B Activation(%).
Reply: 96.6

Ask: Param item = O=C(CNC(=O)Oc1ccc(Cl)cc1C(=O)Nc1cc(C(F)(F)F)cc(C(F)(F)F)c1)N[C@@H](Cc1ccccc1)C(=O)O ; retrieve measured Inhibitory Ratio of NF-κ B Activation(%).
Reply: 97.8

Ask: Param item = CC(C)S(=O)(=O)Oc1ccc(Cl)cc1C(=O)Nc1cc(C(F)(F)F)cc(C(F)(F)F)c1 ; retrieve measured Inhibitory Ratio of NF-κ B Activation(%).
Reply: 96.3

Ask: Param item = CC(C)(C)C(=O)OCOc1ccc(Cl)cc1C(=O)Nc1cc(C(F)(F)F)cc(C(F)(F)F)c1 ; retrieve measured Inhibitory Ratio of NF-κ B Activation(%).
Reply: 94.7

Report Inhibitory Ratio of NF-κ B Activation(%) for every entry below.
1. O=C(Nc1cc(C(F)(F)F)cc(C(F)(F)F)c1)c1cc(Cl)ccc1OC(=O)N1CCOCC1
2. Cl.NCC(=O)Oc1ccc(Cl)cc1C(=O)Nc1cc(C(F)(F)F)cc(C(F)(F)F)c1
3. N[C@@H](CCC(=O)O)C(=O)Oc1ccc(Cl)cc1C(=O)Nc1cc(C(F)(F)F)cc(C(F)(F)F)c1
4. CCCS(=O)(=O)Oc1ccc(Cl)cc1C(=O)Nc1cc(C(F)(F)F)cc(C(F)(F)F)c1
5. CCOC(=O)OC(C)Oc1ccc(Cl)cc1C(=O)Nc1cc(C(F)(F)F)cc(C(F)(F)F)c1 (stereo not drawn)
6. CC(C)C[C@H](NC(=O)[C@@H](N)CC(=O)O)C(=O)Oc1ccc(Cl)cc1C(=O)Nc1cc(C(F)(F)F)cc(C(F)(F)F)c1.Cl

Reply:
1: 78.0; 2: 97.3; 3: 98.8; 4: 95.4; 5: 98.5; 6: 98.6

----------
Test system: NF-κB activation
Test: Inhibitory activity against NF-κB activation, luciferase reporter assay under TNF-α stimulation
Assay type: cell-based, human
Settings: Drug Concentration 10 μg/mL; HepG2 cells, TNF-α 40 ng/ml, 4 hours
Experimental: Inhibitory activity against NF-κB activation was measured by referring to the method of Hill et al. (Cell, (USA), in 1993, Vol. 73, No. 2, p. 395-406). […] Then the cells were cultured for 4 hours after the addition of TNF-α (40 ng/ml) in the presence of a test compound, and intracellular luciferase activity was measured by using PicaGene LT (TOYO INK MFG Co., Ltd.) and a chemical luminescence measurement apparatus(SPECTRAFluor Plus; TECAN). […]
experimental readout: Inhibitory Ratio of NF-κ B Activation(%)
One number for each entry, in %.

Some solved entries appear below for comparison.
Ask: Param item = O=C(O)C[C@H](NC(=O)CNC(=O)Oc1ccc(Cl)cc1C(=O)Nc1cc(C(F)(F)F)cc(C(F)(F)F)c1)C(=O)O [Compound 64] ; retrieve measured Inhibitory Ratio of NF-κ B Activation(%).
Reply: 97.5

Ask: Param item = O=C(Nc1cc(C(F)(F)F)cc(C(F)(F)F)c1)c1cc(Cl)ccc1OCCO [Compound 107] ; retrieve measured Inhibitory Ratio of NF-κ B Activation(%).
Reply: 52.1

Ask: Param item = O=C(Nc1cc(C(F)(F)F)cc(C(F)(F)F)c1)c1cc(Cl)ccc1OC(=O)N1CCC(C(=O)O)CC1 [Compound 74] ; retrieve measured Inhibitory Ratio of NF-κ B Activation(%).
Reply: 58.1

Ask: Param item = O=C(O)COc1ccc(Cl)cc1C(=O)Nc1cc(C(F)(F)F)cc(C(F)(F)F)c1 [Compound 109] ; retrieve measured Inhibitory Ratio of NF-κ B Activation(%).
Reply: 95.9

Ask: Param item = Cl.Cl.NCCCC[C@H](N)C(=O)Oc1ccc(Cl)cc1C(=O)Nc1cc(C(F)(F)F)cc(C(F)(F)F)c1 [Compound 34] ; retrieve measured Inhibitory Ratio of NF-κ B Activation(%).
Reply: 99.5

Report Inhibitory Ratio of NF-κ B Activation(%) for every entry below.
1. CC(C)C[C@H](N)C(=O)Oc1ccc(Cl)cc1C(=O)Nc1cc(C(F)(F)F)cc(C(F)(F)F)c1.Cl [Compound 27]
2. O=C(Nc1cc(C(F)(F)F)cc(C(F)(F)F)c1)c1cc(Cl)ccc1OP(=O)([O-])O.[Na+] [Compound 52]

Reply:
1. 99.2
2. 96.5

Report Inhibitory Ratio of NF-κ B Activation(%) for every entry below.
1. COC(=O)[C@H](Cc1ccccc1)NC(=O)Oc1ccc(Cl)cc1C(=O)Nc1cc(C(F)(F)F)cc(C(F)(F)F)c1 [Compound 59]
2. O=C(O)CN(CC(=O)O)C(=O)Oc1ccc(Cl)cc1C(=O)Nc1cc(C(F)(F)F)cc(C(F)(F)F)c1 [Compound 76]

Reply:
1: 97.8; 2: 98.2

Report Inhibitory Ratio of NF-κ B Activation(%) for every entry below.
1. CCCCCCCCCC(=O)Oc1ccc(Cl)cc1C(=O)Nc1cc(C(F)(F)F)cc(C(F)(F)F)c1 [Compound 3]
2. CC(=O)Oc1ccccc1C(=O)Oc1ccc(Cl)cc1C(=O)Nc1cc(C(F)(F)F)cc(C(F)(F)F)c1 [Compound 5]
3. O=C(Nc1cc(C(F)(F)F)cc(C(F)(F)F)c1)c1cc(Cl)ccc1OC(=O)N1CCCC1 [Compound 70]
4. O=C(Nc1cc(C(F)(F)F)cc(C(F)(F)F)c1)c1cc(Cl)ccc1OCOC(=O)N1CCC(C(=O)O)CC1 [Compound 104]

Reply:
98.4
98.0
89.6
58.8

----------
system: NF-κB activation; assay: Inhibitory activity against NF-κB activation, luciferase reporter assay under TNF-α stimulation; type: cell-based, human; conditions: Drug Concentration 10 μg/mL; HepG2 cells, TNF-α 40 ng/ml, 4 hours
experimental readout: Inhibitory Ratio of NF-κ B Activation(%)
Numbers only, in %.

Ask: Param item = O=C(Nc1cc(C(F)(F)F)cc(C(F)(F)F)c1)c1cc(Cl)ccc1OS(=O)(=O)O ; retrieve measured Inhibitory Ratio of NF-κ B Activation(%).
Reply: 99.0

Ask: Param item = CCN(CC)C(=O)Oc1ccc(Cl)cc1C(=O)Nc1cc(C(F)(F)F)cc(C(F)(F)F)c1 ; retrieve measured Inhibitory Ratio of NF-κ B Activation(%).
Reply: 47.4

Ask: Param item = O=C(Nc1cc(C(F)(F)F)cc(C(F)(F)F)c1)c1cc(Cl)ccc1OCN1C(=O)c2ccccc2C1=O ; retrieve measured Inhibitory Ratio of NF-κ B Activation(%).
Reply: 96.0

More entries:
Ask: Param item = CN(C(=O)Oc1ccc(Cl)cc1C(=O)Nc1cc(C(F)(F)F)cc(C(F)(F)F)c1)c1ccccc1 ; retrieve measured Inhibitory Ratio of NF-κ B Activation(%).
Reply: 18.7

----------
system: NF-κB activation; assay: Inhibitory activity against NF-κB activation, luciferase reporter assay under TNF-α stimulation; type: cell-based, human; details: Drug Concentration 10 μg/mL; HepG2 cells, TNF-α 40 ng/ml, 4 hours
experimental readout: Inhibitory Ratio of NF-κ B Activation(%)
Give bare numbers, in %.

Some solved entries appear below for comparison.
Ask: Param item = COCOc1ccc(Cl)cc1C(=O)Nc1cc(C(F)(F)F)cc(C(F)(F)F)c1 ; retrieve measured Inhibitory Ratio of NF-κ B Activation(%).
Reply: 94.4

Ask: Param item = CC(C)NC(=O)Oc1ccc(Cl)cc1C(=O)Nc1cc(C(F)(F)F)cc(C(F)(F)F)c1 ; retrieve measured Inhibitory Ratio of NF-κ B Activation(%).
Reply: 98.0

Ask: Param item = CC(C)(Oc1ccc(Cl)cc1)C(=O)Oc1ccc(Cl)cc1C(=O)Nc1cc(C(F)(F)F)cc(C(F)(F)F)c1 ; retrieve measured Inhibitory Ratio of NF-κ B Activation(%).
Reply: 98.4

Report Inhibitory Ratio of NF-κ B Activation(%) for every entry below.
1. Cc1ccc(S(=O)(=O)Oc2ccc(Cl)cc2C(=O)Nc2cc(C(F)(F)F)cc(C(F)(F)F)c2)cc1
2. CC(C)(C)OC(=O)CC(=O)Oc1ccc(Cl)cc1C(=O)Nc1cc(C(F)(F)F)cc(C(F)(F)F)c1
3. CC(=O)NCC(=O)Oc1ccc(Cl)cc1C(=O)Nc1cc(C(F)(F)F)cc(C(F)(F)F)c1
4. CC(Oc1ccccc1)C(=O)Oc1ccc(Cl)cc1C(=O)Nc1cc(C(F)(F)F)cc(C(F)(F)F)c1 (stereo not drawn)

Reply:
92.5
96.8
98.1
99.1
